Numbers sourced from ChEMBL document CHEMBL4622881.

# PROTOCOL SUMMARY: Inhibition of GARFTase in Chinese Hamster PC43-10 cells expressing human RFC assessed as reduction in cell growth after 96 hrs by Cell-Titer Blue assay
# CONDITION NOTES: Cricetulus griseus, PC43-10, 96 h
molecules and their reported IC50

Nc1nc2[nH]c(CCNc3ccc(C(=O)N[C@@H](CCC(=O)O)C(=O)O)cc3)cc2c(=O)[nH]1: 510 nM

Proceeding to the next molecule to report its IC50.
Quick check: IC50 of Nc1nc2[nH]c(CCCOc3ccc(C(=O)N[C@@H](CCC(=O)O)C(=O)O)cc3)cc2c(=O)[nH]1 ? > 1000 nM

----------
# PROTOCOL SUMMARY: Inhibition of GARFTase in Chinese Hamster D4 cells expressing human FRbeta assessed as reduction in cell growth after 96 hrs by Cell-Titer Blue assay
# Assay type: cell-based
# CONDITION NOTES: Cricetulus griseus
READOUT NAME: IC50 (nM)
Give the value in nM but do not write nM after it.

Take a look at these entries with their results.
Nc1nc2[nH]c(CCCNc3ccc(C(=O)N[C@@H](CCC(=O)O)C(=O)O)cc3)cc2c(=O)[nH]1: 1.51
CC(=O)N(CCCc1cc2c(=O)[nH]c(N)nc2[nH]1)c1ccc(C(=O)N[C@@H](CCC(=O)O)C(=O)O)cc1: 12.8
Nc1nc2[nH]c(CCNc3ccc(C(=O)N[C@@H](CCC(=O)O)C(=O)O)cc3)cc2c(=O)[nH]1: 0.62
Nc1nc2[nH]c(CCCN(C(=O)C(F)(F)F)c3ccc(C(=O)N[C@@H](CCC(=O)O)C(=O)O)cc3)cc2c(=O)[nH]1: 3.87
Nc1nc2[nH]c(CCCN(C=O)c3ccc(C(=O)N[C@@H](CCC(=O)O)C(=O)O)cc3)cc2c(=O)[nH]1: 0.61
Nc1nc2[nH]c(CCCSc3ccc(C(=O)N[C@@H](CCC(=O)O)C(=O)O)cc3)cc2c(=O)[nH]1: 0.6

For Nc1nc2[nH]c(CCCOc3ccc(C(=O)N[C@@H](CCC(=O)O)C(=O)O)cc3)cc2c(=O)[nH]1 , what is its reported IC50? 5.6

----------
# PROTOCOL SUMMARY: Inhibition of GARFTase in Chinese Hamster PC43-10 cells expressing human RFC assessed as reduction in cell growth after 96 hrs by Cell-Titer Blue assay
# CONDITION NOTES: Cricetulus griseus, PC43-10, 96 h
READOUT NAME: IC50

Nc1nc2[nH]c(CCCN(C(=O)C(F)(F)F)c3ccc(C(=O)N[C@@H](CCC(=O)O)C(=O)O)cc3)cc2c(=O)[nH]1: > 1 µM

I would be grateful if you could share the reported IC50 for Nc1nc2[nH]c(CCCSc3ccc(C(=O)N[C@@H](CCC(=O)O)C(=O)O)cc3)cc2c(=O)[nH]1 . > 1 µM

Returns the measured IC50 for the input compound. Input: Nc1nc2[nH]c(CCCN(C=O)c3ccc(C(=O)N[C@@H](CCC(=O)O)C(=O)O)cc3)cc2c(=O)[nH]1 > 1 µM

Value lookup for IC50; key = CC(=O)N(CCCc1cc2c(=O)[nH]c(N)nc2[nH]1)c1ccc(C(=O)N[C@@H](CCC(=O)O)C(=O)O)cc1 > 1 µM

What value of IC50 has been reported for the following compound? Nc1nc2[nH]c(CCCc3ccc(C(=O)N[C@@H](CCC(=O)O)C(=O)O)cc3)cc2c(=O)[nH]1 0.649 µM

Dear colleague, I am looking for the recorded IC50 of the following compound: Nc1nc2[nH]c(CCCCc3ccc(C(=O)N[C@@H](CCC(=O)O)C(=O)O)cc3)cc2c(=O)[nH]1 > 1 µM

Record request: IC50 value, item Nc1nc2[nH]c(CCCNc3ccc(C(=O)N[C@@H](CCC(=O)O)C(=O)O)cc3)cc2c(=O)[nH]1 0.67 µM
